# targetSystem: human 5-HT6 receptor (Homo sapiens)
# Construct: host or cells: CHO-K1 cells, stably transfected; membranes prepared in house
# Sequence (P50406 whole entry): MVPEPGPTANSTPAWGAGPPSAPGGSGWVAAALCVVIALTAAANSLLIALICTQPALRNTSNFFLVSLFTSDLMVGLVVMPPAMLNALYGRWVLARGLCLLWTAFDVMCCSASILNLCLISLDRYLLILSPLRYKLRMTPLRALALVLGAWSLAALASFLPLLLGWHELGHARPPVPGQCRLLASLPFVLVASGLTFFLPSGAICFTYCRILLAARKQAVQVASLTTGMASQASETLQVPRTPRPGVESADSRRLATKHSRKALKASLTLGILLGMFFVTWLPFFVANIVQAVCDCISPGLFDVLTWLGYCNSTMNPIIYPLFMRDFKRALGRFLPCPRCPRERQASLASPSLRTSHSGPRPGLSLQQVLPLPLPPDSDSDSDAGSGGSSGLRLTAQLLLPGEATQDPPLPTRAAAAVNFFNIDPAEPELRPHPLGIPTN
# experimentDescription: Human 5-HT6 Receptor Binding Assay ([3H]LSD displacement, scintillation beads)
# conditionsUsed: membranes of CHO-K1 cells with recombinant human 5-HT6, 4 nM [3H]LSD; Table 1, class symbols; read-out: h5-HT6 (Ki)
# Method: Human 5-HT6 Receptor Binding Assay Membranes were prepared from CHO—K1 cells stably transfected with the human 5-HT6 receptor (Euroscreen; ES-316-C). […] The membranes were centrifuged at 40,000×g for 30 min at 4° C. and the pellets were resuspended in membrane buffer containing 250 mM sucrose, and protein concentration was determined using the Coomassie Plus kit (Pierce Biotechnology, Rockford, Ill.). […]
pKi: −log10 of the molar value.
# pKi annotations

Solved cases below.
>  <molecule>
COc1cc(S(=O)(=O)c2ccc3c4c(oc3c2)CNCC4(C)C)c[n+]([O-])c1

>  <pKi>
< 6.00

$$$$
>  <molecule>
O=S(=O)(c1cc(F)cc(OCc2ccccc2)c1)c1ccc2c(c1)OC1CNCCC21 (centres unmarked)

>  <pKi>
> 6.30

$$$$
>  <molecule>
CC12CCNCC1Oc1ccc(S(=O)(=O)c3ccccc3CO)cc12 (centres unmarked)

>  <pKi>
< 6.00

$$$$

Value lookup for pKi; key = CC1OCCC12NCCc1c2oc2cc(S(=O)(=O)c3cccc(F)c3)ccc12 (single isomer, unassigned) [Example 60]
> 6.30

====

# targetSystem: human 5-HT6 receptor (Homo sapiens)
# Construct: host or cells: CHO-K1 cells, stably transfected; membranes prepared in house
# experimentDescription: Human 5-HT6 Receptor Binding Assay ([3H]LSD displacement, scintillation beads)
# conditionsUsed: membranes of CHO-K1 cells with recombinant human 5-HT6, 4 nM [3H]LSD; Table 1, class symbols; read-out: h5-HT6 (Ki)
# Ki annotations

Solved cases below.
>  <compound>
O=S(=O)(Nc1ccc2c(c1)C1CCNCC1O2)c1c(Cl)nc2sccn12 (stereo not drawn)

>  <readoutName>
Ki

>  <observedValue>
< 0.5 µM

$$$$
>  <compound>
CC12CCN(C3CCCC3)CC1Oc1ccc(OS(=O)(=O)Cc3ccccc3)cc12 (stereo not drawn)

>  <readoutName>
Ki

>  <observedValue>
> 1 µM

$$$$

Recorded Ki for COC(=O)c1cccc(S(=O)(=O)c2ccc3oc4c(c3c2)CCNC4)c1 with human 5-HT6 receptor (Homo sapiens), please?
0.5 to 1 µM

Recorded Ki for COc1ccc(S(=O)(=O)c2ccc3c(c2)OC2CNCCC32)cc1 (stereo not drawn) [Example 325] with human 5-HT6 receptor (Homo sapiens), please?
0.5 to 1 µM

Recorded Ki for CC1(C)NCCc2c1oc1cc(S(=O)(=O)c3cccc4c3OC(F)(F)O4)ccc21 with human 5-HT6 receptor (Homo sapiens), please?
< 0.5 µM

====

# melting point annotations
Counter-ions that a name gives are not always drawn.

Solved cases below.
>  <molecule>
O=S(=O)(c1cccc(OCCCO)c1)c1ccc2c(c1)OC1CNCCC21 (stereo not shown) (as salt: HCl)

>  <readoutName>
melting point

>  <observedValue>
206 to 209 °C

$$$$
>  <molecule>
O=S(=O)(c1cccc(OCc2ccncc2)c1)c1ccc2c(c1)OC1CNCCC21 (stereo not shown) (as salt: HCl)

>  <readoutName>
melting point

>  <observedValue>
182 to 185 °C

$$$$
>  <molecule>
C[C@@H]1CCCN1CCCOc1cc(F)cc(S(=O)(=O)c2ccc3c(c2)OC2CNCCC32)c1 (single isomer, unassigned)

>  <readoutName>
melting point

>  <observedValue>
208 to 212 °C

$$$$
>  <molecule>
O=S(=O)(c1ccc2c(c1)OC1CNCCC21)c1cccc2nsnc12 (stereo not shown)

>  <readoutName>
melting point

>  <observedValue>
195 to 196 °C

$$$$

Value lookup for melting point; key = CC12CCNCC1Oc1ccc(S(=O)(=O)c3cccc(Cl)c3Cl)cc12 (stereo not shown) [Example 106]
244 to 246 °C

Value lookup for melting point; key = N#Cc1ccc(COc2cccc(S(=O)(=O)c3ccc4c(c3)OC3CNCCC43)c2)cc1 (stereo not shown) (as salt: HCl)
203 to 204 °C

Value lookup for melting point; key = CCC1(C)NCCc2c1oc1cc(S(=O)(=O)c3cccc(F)c3)ccc21 (racemic) (as salt: HCl)
> 300 °C

Provenance of the data: patent US8765779B2
